B1: Gamma-crystallin C, residues 91 to 170; numbered along this chain, P07315 (parent)
chain: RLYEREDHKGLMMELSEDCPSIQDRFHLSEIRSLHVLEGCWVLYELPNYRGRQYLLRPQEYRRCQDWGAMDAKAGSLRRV

variants of: B1; experiment: abundance fitness (aPCA) (normalised: wild type 0, dead -1); higher = more abundant; growth selection in yeast, the domain comes from the species named; conditions: Homo sapiens
experimental readout: abundance fitness

[[record]]
mutations = "L55F"
recorded_measurement = -0.078

[[record]]
mutations = "N48V"
recorded_measurement = -0.929

[[record]]
mutations = "L77V"
recorded_measurement = -0.169

[[record]]
mutations = "R63H"
recorded_measurement = -0.167

[[record]]
mutations = "H35E"
recorded_measurement = 0.139

[[record]]
mutations = "Q65R"
recorded_measurement = -0.173

[[record]]
mutations = "Q53Y"
recorded_measurement = -0.159

[[record]]
mutations = "I31P"
recorded_measurement = -0.951

[[record]]
mutations = "N48G"
recorded_measurement = -0.07

[[record]]
mutations = "M13R"
recorded_measurement = -0.261

[[record]]
mutations = "Q65C"
recorded_measurement = -0.265

[[record]]
mutations = "H27A"
recorded_measurement = -0.069

[[record]]
mutations = "L28Y"
recorded_measurement = -0.252

[[record]]
mutations = "Q53M"
recorded_measurement = -0.345

[[record]]
mutations = "L34V"
recorded_measurement = -0.043

[[record]]
mutations = "K73S"
recorded_measurement = -0.145

[[record]]
mutations = "E38V"
recorded_measurement = -0.222

[[record]]
mutations = "D24A"
recorded_measurement = -0.008

[[record]]
mutations = "L34G"
recorded_measurement = -0.725

[[record]]
mutations = "L43R"
recorded_measurement = -1.01

[[record]]
mutations = "W67A"
recorded_measurement = -0.944

[[record]]
mutations = "E38S"
recorded_measurement = -0.015

[[record]]
mutations = "L28A"
recorded_measurement = -0.129

[[record]]
mutations = "Q65S"
recorded_measurement = -0.02

[[record]]
mutations = "L55I"
recorded_measurement = 0.075

[[record]]
mutations = "E4T"
recorded_measurement = -0.123

[[record]]
mutations = "E14V"
recorded_measurement = -0.227

[[record]]
mutations = "Q53G"
recorded_measurement = -0.103

[[record]]
mutations = "A74G"
recorded_measurement = -0.454

[[record]]
mutations = "A72V"
recorded_measurement = -0.554

[[record]]
mutations = "P47R"
recorded_measurement = -0.502

[[record]]
mutations = "R63S"
recorded_measurement = -0.091

[[record]]
mutations = "D71G"
recorded_measurement = -0.165

[[record]]
mutations = "R32Y"
recorded_measurement = -0.417

[[record]]
mutations = "G75N"
recorded_measurement = -0.767

[[record]]
mutations = "D18S"
recorded_measurement = -0.142

[[record]]
mutations = "P58T"
recorded_measurement = -0.105

[[record]]
mutations = "L34E"
recorded_measurement = -0.537

[[record]]
mutations = "E4M"
recorded_measurement = -0.019

[[record]]
mutations = "L56Y"
recorded_measurement = -0.926

[[record]]
mutations = "D71E"
recorded_measurement = -0.185

[[record]]
mutations = "L11D"
recorded_measurement = -0.248

[[record]]
mutations = "M12C"
recorded_measurement = -0.288

[[record]]
mutations = "K73Y"
recorded_measurement = -0.295

[[record]]
mutations = "L34I"
recorded_measurement = 0.056

[[record]]
mutations = "E45H"
recorded_measurement = -0.582

